Assignment: determine reported log10 IC50 for the given molecules.
- tested system: Monoglyceride lipase (Homo sapiens)
- Sequence (Q99685 whole entry): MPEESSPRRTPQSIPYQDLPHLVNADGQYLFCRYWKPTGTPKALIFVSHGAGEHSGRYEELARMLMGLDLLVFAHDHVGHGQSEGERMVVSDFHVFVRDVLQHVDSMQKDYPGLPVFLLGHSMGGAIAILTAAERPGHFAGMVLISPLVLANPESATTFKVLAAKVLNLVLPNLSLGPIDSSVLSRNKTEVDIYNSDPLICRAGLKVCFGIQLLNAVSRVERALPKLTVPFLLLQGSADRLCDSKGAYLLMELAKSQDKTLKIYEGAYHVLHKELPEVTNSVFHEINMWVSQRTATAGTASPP
Form field - Quantity: IC50; Unit: µM; Scale: log10

# log10 IC50 lookup, item `CCN(CC)SSN(CC)CC`
0.90

# repeat for `S=C(SSC(=S)N1CCN(c2ccccc2)CC1)N1CCN(c2ccccc2)CC1`
-0.31

Cool, now `S=C(SSC(=S)N1CCc2ccccc2C1)N1CCc2ccccc2C1`
-0.46

Try this molecule next: `O=C(CSC(=S)N1CCOCC1)N1CCOCC1`
2.34

Queued: `CN(C(=S)SSC(=S)N(C)c1ccccc1)c1ccccc1`
-0.13

And for `CN(C)C(=S)SC(=S)N(C)C` ?
1.09

And then `S=C(SSC(=S)N1CCCc2ccccc21)N1CCCc2ccccc21` , what is it?
-0.13

And then S=C(SSC(=S)N1CCCCC1)N1CCCCC1 [BIS(PIPERIDINYLTHIOCARBONYL)DISULFIDE] , what is it?
-0.50

Next: `CN(C)C(=O)n1nnnc1Cc1ccc(-c2ccccc2)cc1`
-1.26

// repeat for `COc1nn(-c2ccc(NC(=O)OCc3ccccc3)c(C)c2)c(=O)o1` and report
-1.69

Consider next the molecule `CN(C)C(=S)SSC(=S)N(C)C` in the same way.
-0.01

Would you mind doing `CCN(CC)C(=S)SCSC(=S)N(CC)CC` as well?
1.32

Please answer likewise for `CCCCC/C=C\C/C=C\C/C=C\C/C=C\CCCC(=O)C(F)(F)F`
0.81

Input S=C(SSC(=S)N(Cc1ccccc1)Cc1ccccc1)N(Cc1ccccc1)Cc1ccccc1 [BIS(DIBENZYLAMINETHIOCARBONYL)DISULFIDE]
0.98

What about `S=C(CSC(=S)N1CCOCC1)N1CCOCC1` ?
1.19

Please do the same for S=C(SSC(=S)N1CCCC1)N1CCCC1 [BIS(PYRROLIDINYLTHIOCARBONYL)DISULFIDE] as well.
-0.04

How about `CN1CCN(C(=S)SSC(=S)N2CCN(C)CC2)CC1` ?
-0.96

Please do the same for `S=C(SSC(=S)N1CCOCC1)N1CCOCC1` as well.
-0.66

Moving on to the next molecule: `O=C(Nc1cccc(-c2ccccc2)c1)OC1CCCCC1`
1.00

Do the same for `S=C(SSC(=S)N1CCN(Cc2ccccc2)CC1)N1CCN(Cc2ccccc2)CC1` please
0.70

Now try `C1CN(SSN2CCOCC2)CCO1` .
1.05

Similarly, CC1CCCC(C)N1C(=S)SSC(=S)N1C(C)CCCC1C (centres undefined) ?
-0.32

How about `S=C(SSC(=S)N1CCCCCC1)N1CCCCCC1` ?
-0.09

And `S=C(SSC(=S)N1CCSCC1)N1CCSCC1` ?
-0.50
